# experimental-target: presynaptic α2 -adrenergic receptors (Cavia porcellus)
# Construct: Stimulation of a guinea-pig ileum; from tissue; host or cells: guinea-pig ileum longitudinal muscle strips
# Sequence (Q60474 1-464): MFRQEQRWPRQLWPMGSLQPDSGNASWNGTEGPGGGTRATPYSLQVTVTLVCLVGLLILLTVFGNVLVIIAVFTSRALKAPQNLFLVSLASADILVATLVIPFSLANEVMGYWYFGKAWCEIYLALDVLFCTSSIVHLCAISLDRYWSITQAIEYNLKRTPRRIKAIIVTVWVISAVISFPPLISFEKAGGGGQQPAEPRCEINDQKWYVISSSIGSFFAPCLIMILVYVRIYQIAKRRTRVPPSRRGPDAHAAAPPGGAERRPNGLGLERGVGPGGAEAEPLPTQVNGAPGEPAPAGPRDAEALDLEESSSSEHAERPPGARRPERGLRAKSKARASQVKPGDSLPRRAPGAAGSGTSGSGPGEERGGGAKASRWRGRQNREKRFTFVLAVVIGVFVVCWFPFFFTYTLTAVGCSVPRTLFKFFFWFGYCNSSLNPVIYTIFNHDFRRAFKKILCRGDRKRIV
# assay-name: Stimulation of the isolated guinea-pig atria (reduction in tachycardia)
# assay-context: isolated guinea-pig atria, electrical stimulation; read-out: IC30 (30% reduction in the maximum tachycardia)
parameter-measured: IC30 (nM)
# value in nM; strip the unit string

compound | experimental-target | IC30 [nM]
CC(c1c[nH]cn1)c1cccc(C(N)=O)c1O.Cl (stereo not drawn) [B, hydrochloride] | presynaptic α2 -adrenergic receptors (Cavia porcellus) | 0.75
Clc1cccc(Cl)c1N=C1NCCN1 [clonidine, reference compound] | presynaptic α2 -adrenergic receptors (Cavia porcellus) | 3.2
COc1c(Cc2c[nH]cn2)cccc1C(N)=O.Cl [F, hydrochloride] | presynaptic α2 -adrenergic receptors (Cavia porcellus) | 70
CNC(=O)c1cccc(Cc2c[nH]cn2)c1O.Cl [C, hydrochloride] | presynaptic α2 -adrenergic receptors (Cavia porcellus) | 130
NNC(=O)c1cccc(Cc2c[nH]cn2)c1O | presynaptic α2 -adrenergic receptors (Cavia porcellus) | 220

The compound identified as Cl.NC(=O)c1cccc(Cc2c[nH]cn2)c1O [A, hydrochloride] registered its IC30 at 0.9

----------
# experimental-target: presynaptic α2 -adrenergic receptors (Cavia porcellus, UniProt Q60474)
# Construct: Stimulation of a guinea-pig ileum; from tissue; host or cells: guinea-pig ileum longitudinal muscle strips
# assay-name: Inhibition of the contraction of electrically stimulated guinea-pig ileum
# assay-context: guinea-pig ileum, electrical stimulation; read-out: IC50 (reduces by 50% the intensity of the contraction of the muscle)
Measured log10 IC50 by item
Would you kindly interpret these values as log10 of IC50 expressed in nM?

molecule | observed-value
CC(c1c[nH]cn1)c1cccc(C(N)=O)c1O.Cl (single isomer, unassigned; (+)) [P, hydrochloride] | 0.30
Cl.NC(=O)c1cccc(Cc2c[nH]cn2)c1O [A, hydrochloride] | 0.85
CC(C)(C)c1cc(Cc2c[nH]cn2)c(O)c(C(N)=O)c1 | 4.48
Cl.NC(=O)c1c(O)ccc(Cc2c[nH]cn2)c1O [I, hydrochloride] | 2.48
Clc1cccc(Cl)c1N=C1NCCN1 [clonidine, reference compound] | 1.30
Cl.O=C(NCCO)c1cccc(Cc2c[nH]cn2)c1O [E, hydrochloride] | 4.78
Cc1ccc(C(N)=O)c(O)c1Cc1c[nH]cn1 | 1.48
Cl.O=C(NO)c1cccc(Cc2c[nH]cn2)c1O [M, hydrochloride] | 2.60

The molecule identified as CC(c1c[nH]cn1)c1cccc(C(N)=O)c1O.Cl (stereo not shown) [B, hydrochloride] registered its log10 IC50 at 0.48

The molecule identified as COc1c(Cc2c[nH]cn2)cccc1C(N)=O.Cl [F, hydrochloride] registered its log10 IC50 at 4.85
